What EC50 was measured for each of the following?
# TARGET_DESC: APJ (Homo sapiens)
# Construct: expressed in transfected cells; host or cells: CHO (CHO-A10; clone 6 for the cAMP assay)
# Sequence (P35414 1-380): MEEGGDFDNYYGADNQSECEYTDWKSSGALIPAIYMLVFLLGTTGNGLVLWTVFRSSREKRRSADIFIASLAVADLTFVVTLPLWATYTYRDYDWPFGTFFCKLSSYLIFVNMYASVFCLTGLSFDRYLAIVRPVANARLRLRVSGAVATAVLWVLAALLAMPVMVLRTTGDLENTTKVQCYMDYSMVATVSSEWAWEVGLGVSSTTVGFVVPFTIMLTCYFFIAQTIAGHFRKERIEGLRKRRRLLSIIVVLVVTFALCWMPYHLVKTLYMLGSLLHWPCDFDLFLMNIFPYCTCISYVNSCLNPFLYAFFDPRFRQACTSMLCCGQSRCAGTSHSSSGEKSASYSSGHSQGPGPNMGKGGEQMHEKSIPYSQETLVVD
# EXPERIMENT_DESCRIPTION: Inhibitory activity on forskolin-stimulated cAMP production in CHO-A10 clone 6 cells
# Format: cell-based
# CONDITION: read-out: EC50
Non-standard residues stand in square brackets, D forms with d. Residues, ends and D or L forms follow the SMILES beside them. Phe(4-Cl) = N[C@@H](Cc1ccc(Cl)cc1)C(=O)O; Cha = N[C@@H](CC1CCCCC1)C(=O)O; NMeA = CN[C@@H](C)C(=O)O; Dap = NC[C@H](N)C(=O)O
Give bare numbers, in nM.

Sample answers from the record:
# COMPOUND, UNIT_OF_MEASUREMENT, EC50
records = [
    ("CC(C)C[C@H](NC(=O)[C@H](CCCNC(=N)N)NC(=O)[C@@H]1CCCN1C(=O)[C@@H](N)CCCNC(=N)N)C(=O)N[C@@H](CO)C(=O)N[C@@H](CN)C(=O)N[C@@H](CCCNC(=N)N)C(=O)NCC(=O)N1CCC[C@H]1C(=O)N[C@@H](CC1CCCCC1)C(=O)N1CCC[C@H]1C(=O)N[C@@H](Cc1ccc(Cl)cc1)C(=O)O [Compound in Ex. 65] (H-RPRLS[Dap]RGP[Cha]P[Phe(4-Cl)]-OH)", "nM", 0.52),
    ("CSCC[C@H](NC(=O)[C@@H]1CCCN1C(=O)CNC(=O)[C@H](CCCCN)NC(=O)[C@H](Cc1c[nH]cn1)NC(=O)[C@H](CO)NC(=O)[C@H](CC(C)C)NC(=O)[C@H](CCCNC(=N)N)NC(=O)[C@@H]1CCCN1C(=O)[C@H](CCCNC(=N)N)NC(=O)[C@H](CCCCNC(=O)[C@H](CCCNC(=N)N)NC(=O)[C@@H](N)CCCNC(=N)N)NC(=O)[C@H](CCCNC(=N)N)NC(=O)[C@@H](N)CCCNC(=N)N)C(=O)N1CCC[C@H]1C(=O)N[C@@H](Cc1ccccc1)C(=O)O", "nM", 0.57),
    ("CCCC[C@H](NC(=O)[C@@H]1CCCN1C(=O)CNC(=O)[C@H](CCCCN)NC(=O)[C@H](Cc1c[nH]cn1)NC(=O)[C@H](CO)NC(=O)[C@H](CC(C)C)NC(=O)[C@H](CCCNC(=N)N)NC(=O)[C@@H]1CCCN1C(=O)[C@H](CCCNC(=N)N)NC(=O)[C@H](CCC(N)=O)NC(=O)[C@H](CCCNC(=N)N)NC(=O)[C@@H](N)CCCNC(=N)N)C(=O)N1CCC[C@H]1C(=O)N[C@@H](Cc1ccc(O)cc1)C(=O)O", "nM", 0.28),
    ("CC(C)C[C@H](NC(=O)[C@H](CCCNC(=N)N)NC(=O)[C@@H]1CCCN1C(=O)[C@@H](N)CCCNC(=N)N)C(=O)N[C@@H](CO)C(=O)N[C@@H](C)C(=O)N[C@@H](CCCNC(=N)N)C(=O)NCC(=O)N1CCC[C@H]1C(=O)N[C@@H](CC1CCCCC1)C(=O)N1CCC[C@H]1C(=O)N[C@@H](Cc1ccc(Cl)cc1)C(=O)O [Compound in Ex. 5] (H-RPRLSARGP[Cha]P[Phe(4-Cl)]-OH)", "nM", 0.51),
    ("CC(C)C[C@H](NC(=O)[C@H](CCCNC(=N)N)NC(=O)[C@@H]1CCCN1C(=O)[C@@H](N)CCCNC(=N)N)C(=O)N[C@@H](CO)C(=O)N[C@@H](Cc1c[nH]cn1)C(=O)N[C@@H](C)C(=O)NCC(=O)N1CCC[C@H]1C(=O)N[C@@H](CC1CCCCC1)C(=O)N1CCC[C@H]1C(=O)N[C@@H](Cc1ccc(Cl)cc1)C(=O)O [Compound in Ex. 56] (H-RPRLSHAGP[Cha]P[Phe(4-Cl)]-OH; N-terminus and C-terminus assumed)", "nM", 0.58),
]

# batch size: 2; output EC50 per entry
1. CC(C)C[C@H](NC(=O)[C@H](CCCNC(=N)N)NC(=O)[C@@H]1CCCN1C(=O)[C@H](CCCNC(=N)N)NC(=O)[C@H](CCC(N)=O)NC(=O)[C@H](CCCNC(=N)N)NC(=O)[C@@H](N)CCCNC(=N)N)C(=O)N[C@@H](CO)C(=O)N[C@@H](C)C(=O)N[C@@H](CCCNC(=N)N)C(=O)NCC(=O)N1CCC[C@H]1C(=O)O
2. CSCC[C@H](NC(=O)[C@@H]1CCCN1C(=O)CNC(=O)[C@H](CCCCN)NC(=O)[C@H](Cc1c[nH]cn1)NC(=O)[C@H](CO)NC(=O)[C@H](CC(C)C)NC(=O)[C@H](CCCNC(=N)N)NC(=O)[C@@H]1CCCN1C(=O)[C@H](CCCNC(=N)N)NC(=O)[C@H](CCCCN)NC(=O)[C@H](CCCNC(=N)N)NC(=O)[C@@H](N)CCCNC(=N)N)C(=O)N1CCC[C@H]1C(=O)N[C@@H](Cc1ccccc1)C(=O)O

A.
1: 0.26; 2: 0.31

# batch size: 2; output EC50 per entry
1. CC(C)C[C@H](NC(=O)[C@H](C)NC(=O)[C@@H]1CCCN1C(=O)[C@@H](N)CCCNC(=N)N)C(=O)N[C@@H](CO)C(=O)N[C@@H](Cc1c[nH]cn1)C(=O)N[C@@H](CCCCN)C(=O)NCC(=O)N1CCC[C@H]1C(=O)N[C@@H](CC1CCCCC1)C(=O)N1CCC[C@H]1C(=O)N[C@@H](Cc1ccc(Cl)cc1)C(=O)O [Compound in Ex. 58] (H-RPALSHKGP[Cha]P[Phe(4-Cl)]-OH; N-terminus and C-terminus assumed)
2. CSCC[C@H](NC(=O)[C@H](C)N(C)C(=O)CNC(=O)[C@H](CCCNC(=N)N)NC(=O)[C@H](C)NC(=O)[C@H](CO)NC(=O)[C@H](CC(C)C)NC(=O)[C@H](CCCNC(=N)N)NC(=O)[C@@H]1CCCN1C(=O)[C@@H](N)CCCNC(=N)N)C(=O)N1CCC[C@H]1C(=O)N[C@@H](Cc1ccc(Cl)cc1)C(=O)O [Compound in Ex. 55] (H-RPRLSARG[NMeA]MP[Phe(4-Cl)]-OH; N-terminus and C-terminus assumed)

A.
0.41
0.27

* * *

# TARGET_DESC: APJ (Homo sapiens, UniProt P35414)
# Construct: expressed in transfected cells; host or cells: CHO (CHO-A10; clone 6 for the cAMP assay)
# EXPERIMENT_DESCRIPTION: Inhibitory activity on forskolin-stimulated cAMP production in CHO-A10 clone 6 cells
# Assay type: cell-based
# CONDITION: read-out: EC50
# Procedure: Measurement of an Inhibitory Activity on Forskolin-Stimulated cAMP Production Hanks' balanced salt solution (HBSS) containing 0.2 mM 3-isobutyl-1-methylxanthine (IBMX) and 0.05% bovine serum albumin was prepared as an assay buffer, and each well was washed twice with 500 μl assay buffer and pre-incubated at 37° C. for 30 minutes. […]
Non-standard residues stand in square brackets, D forms with d. Residues, ends and D or L forms follow the SMILES beside them. *: point of attachment. Phe(4-Cl) = N[C@@H](Cc1ccc(Cl)cc1)C(=O)O; Cha = N[C@@H](CC1CCCCC1)C(=O)O; Dap = NC[C@H](N)C(=O)O; Hexanoyl = CCCCCC(=O)*
RECORDED_ENDPOINT: pEC50
Numbers only, as −log10 of the molar value.

# MOLECULE, OBS_VALUE
rows = [
    ("CCCCCC(=O)NC[C@H](NC(=O)[C@H](CO)NC(=O)[C@H](CC(C)C)NC(=O)[C@H](CCCNC(=N)N)NC(=O)[C@@H]1CCCN1C(=O)[C@@H](N)CCCNC(=N)N)C(=O)N[C@@H](CCCNC(=N)N)C(=O)NCC(=O)N1CCC[C@H]1C(=O)N[C@@H](CC1CCCCC1)C(=O)N1CCC[C@H]1C(=O)N[C@@H](Cc1ccc(Cl)cc1)C(=O)O [Compound in Ex. 67] (H-RPRLS[Dap](Hexanoyl)RGP[Cha]P[Phe(4-Cl)]-OH; N-terminus and C-terminus assumed)", 8.96),
    ("CSCC[C@H](NC(=O)[C@@H]1CCCN1C(=O)CNC(=O)[C@H](CCCCN)NC(=O)[C@H](Cc1c[nH]cn1)NC(=O)[C@H](CO)NC(=O)[C@H](CC(C)C)NC(=O)[C@H](CCCNC(=N)N)NC(=O)[C@@H]1CCCN1C(=O)[C@@H](N)CCCNC(=N)N)C(=O)N[C@@H](Cc1ccc(Cl)cc1)C(=O)O [Compound in Ex. 28] (H-RPRLSHKGPM[Phe(4-Cl)]-OH; N-terminus and C-terminus assumed)", 9.80),
]

Attention now shifts to the item below.
Sample CC(C)C[C@H](NC(=O)[C@H](CCCNC(=N)N)NC(=O)[C@@H]1CCCN1C(=O)[C@@H](N)CCCNC(=N)N)C(=O)N[C@@H](CO)C(=O)N[C@@H](C)C(=O)N[C@@H](CCCNC(=N)N)C(=O)NCC(=O)N1CCC[C@H]1C(=O)N[C@@H](CC1CCCCC1)C(=O)N[C@@H](Cc1ccc(Cl)cc1)C(=O)O [Compound in Ex. 4] (H-RPRLSARGP[Cha][Phe(4-Cl)]-OH; N-terminus and C-terminus assumed) ; pEC50 observed: 9.19
